test system: LCLC-97TM1; experiment: relative viability (nuclei count vs DMSO), 5 days (fraction); higher = more cells survive; conditions: first compound 0.01 µM
metricName: relative viability

NC(=O)Nc1cc(-c2cccc(F)c2)sc1C(=O)N[C@H]1CCCNC1 [AZD7762] + COc1cccc2cc(-c3nc([C@H]4CC[C@H](C(=O)O)CC4)n4ncnc(N)c34)[nH]c12 [OSI-027] (partner 0.5 µM) = 0.582
NC(=O)Nc1cc(-c2cccc(F)c2)sc1C(=O)N[C@H]1CCCNC1 [AZD7762] + CS(=O)(=O)N1CCN(Cc2cc3nc(-c4cccc5[nH]ncc45)nc(N4CCOCC4)c3s2)CC1 [Pictilisib] (partner 1 µM) = 0.201
NC(=O)Nc1cc(-c2cccc(F)c2)sc1C(=O)N[C@H]1CCCNC1 [AZD7762] + O=C(c1cc(Cc2n[nH]c(=O)c3ccccc23)ccc1F)N1CCN(C(=O)C2CC2)CC1 [Olaparib] (partner 8 µM) = 0.493
NC(=O)Nc1cc(-c2cccc(F)c2)sc1C(=O)N[C@H]1CCCNC1 [AZD7762] + CS(=O)(=O)CCNCc1ccc(-c2ccc3ncnc(Nc4ccc(OCc5cccc(F)c5)c(Cl)c4)c3c2)o1 [Lapatinib] (partner 2 µM) = 0.834
